Target: Phosphodiesterase 1 (Homo sapiens, UniProt P54750+Q01064+Q14123)
Assay: Inhibition of cGMP PDE I enzyme in guinea pig at 1E-5M concentration
Assay type: protein assay
Conditions: Cavia porcellus; target entry is the homologue from another species
REPORTED_ENDPOINT: inhibition (%)

{"columns": ["SMILES", "TGT", "inhibition (%)"],
 "data": [
  ["CC1(C)CC(=O)NN=C1c1ccc(-n2ccnc2)cc1", "Phosphodiesterase 1 (Homo sapiens, UniProt P54750+Q01064+Q14123)", 5],
  ["Cc1nccn1-c1ccc(C2=NNC(=O)CC2)cc1", "Phosphodiesterase 1 (Homo sapiens, UniProt P54750+Q01064+Q14123)", 0],
  ["O=C1CCC(c2ccc(NC3=NCCN3)cc2)=NN1", "Phosphodiesterase 1 (Homo sapiens, UniProt P54750+Q01064+Q14123)", 33]
]}

a: O=C1CCC(c2ccc(-n3cccn3)cc2)=NN1
b: Cc1csc(Nc2ccc(C3=NNC(=O)CC3)cc2)n1
Query :: Of the two listed items, a and b , which carries the larger inhibition figure? To answer, give the label that identifies your chosen option.
Result :: a
